system: RXF-393 cells; assay: NCI-60 panel antiproliferation, RXF-393; assay type: cell-based, human; settings: NCI 60-cell panel
MEASURED ATTRIBUTE: IC50 (nM)
Just the number please, in nM, no unit attached.

# get_value(readout='IC50', item= C=CC[C@H]1C[C@]2([C@@H](C)Cc3ccc(OC)c(OC)c3)OCOC2=CC1=O )
780

---

tested on: BT-549 cells; test: NCI-60 panel antiproliferation, BT-549; format: cell-based, human; conditions: Homo sapiens, NCI 60-cell panel
MEASURED ATTRIBUTE: pIC50
Would you please state pIC50, meaning minus log10 of the concentration in mol/L, as a bare number?

# get_value(readout='pIC50', item= C=CC[C@H]1C[C@]2([C@@H](C)Cc3ccc(OC)c(F)c3)OCOC2=CC1=O )
7.20

---

test system: M14 (amelanotic melanoma) cells; test: antiproliferation assay (72 h, CELLTITER 96), M14; assay type: cell-based, human; conditions: Homo sapiens; Table 3
The label Y is reserved for IC50 strictly under 50 nM; N covers values equal to or above it.

See these solved cases before continuing.
[
  {
    "COMPOUND": "C=CC[C@H]1C[C@]2([C@H](C)Cc3cc(F)c(OC)cc3F)OCOC2=CC1=O (relative stereo)",
    "CLASS": "Y"
  },
  {
    "COMPOUND": "C=CC[C@H]1C[C@]2([C@@H](C)Cc3cc(C(=O)NC)c(OC)cc3F)OCOC2=CC1=O",
    "CLASS": "N"
  },
  {
    "COMPOUND": "C=CC[C@H]1C[C@]2([C@H](C)Cc3cc(C(=O)NC)c(OC)cc3F)OCOC2=CC1=O",
    "CLASS": "N"
  }
]

Given the entry C=CC[C@H]1C[C@]2([C@@H](C)Cc3cc(N)c(OC)cc3F)OCOC2=CC1=O , would its reported IC50 be below 50 nM?
Y

Given the entry C=CC[C@H]1C[C@]2([C@H](C)Cc3ccc(OC)cc3F)OCOC2=CC1=O (relative stereo) , would its reported IC50 be below 50 nM?
Y

Given the entry C=CC[C@H]1C[C@]2([C@H](C)Cc3cc(C(=O)OC)c(OC)cc3F)OCOC2=CC1=O , would its reported IC50 be below 50 nM?
N

Given the entry C=CC[C@H]1C[C@]2([C@@H](C)Cc3cc(NC(C)=O)c(OC)cc3F)OCOC2=CC1=O , would its reported IC50 be below 50 nM?
N

Given the entry C=CC[C@H]1C[C@]2([C@H](C)Cc3ccc(OC)c(OC)c3F)OCOC2=CC1=O , would its reported IC50 be below 50 nM?
N

Given the entry C=CC[C@H]1C[C@]2([C@@H](C)Cc3cc(C(=O)N(C)C)c(OC)cc3F)OCOC2=CC1=O , would its reported IC50 be below 50 nM?
N

Given the entry C=CC[C@H]1C[C@]2([C@@H](C)Cc3cc(C(=O)OC)c(OC)cc3F)OCOC2=CC1=O , would its reported IC50 be below 50 nM?
N

Given the entry C=CC[C@H]1C[C@]2([C@@H](C)Cc3cc(C#N)c(OC)cc3F)OCOC2=CC1=O , would its reported IC50 be below 50 nM?
Y

Given the entry C=CC[C@H]1C[C@]2([C@@H](C)Cc3cc(O)c(OC)cc3F)OCOC2=CC1=O , would its reported IC50 be below 50 nM?
Y

Given the entry C=CC[C@H]1C[C@]2([C@@H](C)Cc3cc(C)c(OC)cc3F)OCOC2=CC1=O , would its reported IC50 be below 50 nM?
N

Given the entry C=CC[C@H]1C[C@]2([C@@H](C)Cc3cc(-c4nnn[nH]4)c(OC)cc3F)OCOC2=CC1=O , would its reported IC50 be below 50 nM?
N

Given the entry C=CC[C@H]1C[C@]2([C@@H](C)Cc3cc(OC)c(OC)cc3F)OCOC2=CC1=O , would its reported IC50 be below 50 nM?
Y

Given the entry C=CC[C@H]1C[C@]2([C@H](C)Cc3cc(O)c(OC)cc3F)OCOC2=CC1=O (relative stereo) , would its reported IC50 be below 50 nM?
Y

Given the entry C=CC[C@H]1C[C@]2([C@@H](C)Cc3ccc(OC)c(OC)c3F)OCOC2=CC1=O , would its reported IC50 be below 50 nM?
N

Given the entry C=CC[C@H]1C[C@]2([C@H](C)Cc3ccc(OC)c(F)c3F)OCOC2=CC1=O , would its reported IC50 be below 50 nM?
N

Given the entry C=CC[C@H]1C[C@]2([C@@H](C)Cc3ccc(OC)cc3F)OCOC2=CC1=O (relative stereo) , would its reported IC50 be below 50 nM?
Y

Given the entry C=CC[C@H]1C[C@]2([C@H](C)Cc3cc(C(=O)N(C)C)c(OC)cc3F)OCOC2=CC1=O , would its reported IC50 be below 50 nM?
N

Given the entry C=CC[C@H]1C[C@]2([C@@H](C)Cc3cc(F)c(OC)cc3F)OCOC2=CC1=O , would its reported IC50 be below 50 nM?
Y

Given the entry C=CC[C@H]1C[C@]2(C(C)Cc3cc(C(N)=O)c(OC)cc3F)OCOC2=CC1=O (stereo partly drawn) , would its reported IC50 be below 50 nM?
Y

Given the entry C=CC[C@H]1C[C@]2(C(C)Cc3cc(C(=O)O)c(OC)cc3F)OCOC2=CC1=O (stereo partly drawn) , would its reported IC50 be below 50 nM?
N

Given the entry C=CC[C@H]1C[C@]2([C@@H](C)Cc3cc(-c4ccccc4)c(OC)cc3F)OCOC2=CC1=O , would its reported IC50 be below 50 nM?
N

Given the entry C=CC[C@H]1C[C@]2(C(C)Cc3cc(NC(C)=O)c(OC)cc3F)OCOC2=CC1=O (stereo in doubt) , would its reported IC50 be below 50 nM?
N

Given the entry C=CC[C@H]1C[C@]2([C@H](C)Cc3c(F)cc(OC)cc3F)OCOC2=CC1=O , would its reported IC50 be below 50 nM?
N

Given the entry C=CCOc1cc(C[C@@H](C)[C@]23C[C@H](CC=C)C(=O)C=C2OCO3)c(F)cc1OC , would its reported IC50 be below 50 nM?
N

---

system: ACHN cells; assay: NCI-60 panel antiproliferation, ACHN; type: cell-based, human; conditions: NCI 60-cell panel
MEASURED ATTRIBUTE: IC50 (µM)
Just the number please, in µM, no unit attached.

# get_value(readout='IC50', item= C=CC[C@H]1C[C@]2([C@@H](C)Cc3ccc(OC)c(OC)c3)OCOC2=CC1=O )
0.85

---

test system: TK-10 cells; assay: NCI-60 panel antiproliferation, TK-10; assay type: cell-based, human; details: Homo sapiens, NCI 60-cell panel
MEASURED ATTRIBUTE: IC50 (µM)
Just the number please, in µM, no unit attached.

# get_value(readout='IC50', item= C=CC[C@H]1C[C@]2([C@@H](C)Cc3ccc(OC)c(F)c3)OCOC2=CC1=O )
0.107

---

test system: M14 (amelanotic melanoma) cells; assay: antiproliferation assay (72 h, CELLTITER 96), M14; type: cell-based, human; conditions: Homo sapiens; Table 7
The label class 1 is reserved for IC50 strictly under 200 nM; class 0 covers values equal to or above it.

See these solved cases before continuing.
[
  {
    "MOLECULE": "COc1ccc(CC(C)[C@]23C[C@H](CCCF)C(=O)C=C2OCO3)cc1OC (stereo partly shown)",
    "SYSTEM UNDER TEST": "M14 (amelanotic melanoma) cells",
    "CLASS": "class 0"
  },
  {
    "MOLECULE": "C=C[C@@H](C)[C@H]1C[C@]2([C@@H](C)Cc3ccc(OC)cc3F)OCOC2=CC1=O",
    "SYSTEM UNDER TEST": "M14 (amelanotic melanoma) cells",
    "CLASS": "class 1"
  }
]

Moving on to the next molecule.
Given the entry COc1cc(F)c(C[C@H](C)[C@]23C[C@H](Cc4ccccc4)C(=O)C=C2OCO3)cc1O , would its reported IC50 be below 200 nM?
class 0

---

tested on: MOLT-4 cells; test: NCI-60 panel antiproliferation, MOLT-4; type: cell-based, human; conditions: Homo sapiens, NCI 60-cell panel
MEASURED ATTRIBUTE: pIC50
Would you please state pIC50, meaning minus log10 of the concentration in mol/L, as a bare number?

# get_value(readout='pIC50', item= C=CC[C@H]1C[C@]2([C@@H](C)Cc3ccc(OC)c(F)c3)OCOC2=CC1=O )
7.01

---

system: M14 cells; assay: NCI-60 panel antiproliferation, M14; assay type: cell-based, human; conditions: NCI 60-cell panel
MEASURED ATTRIBUTE: pIC50
Would you please state pIC50, meaning minus log10 of the concentration in mol/L, as a bare number?

# get_value(readout='pIC50', item= C=CC[C@H]1C[C@]2([C@@H](C)Cc3ccc(OC)c(OC)c3)OCOC2=CC1=O )
6.70
